biological target: human zymogen NSP4 (hZ) (human) (UniProt Q6UWY2); assay: competition phage ELISA (phage IC50); soluble hZ-NSP4 against plate-coated NSP4
Sequence (Q6UWY2 34-283, form in doubt): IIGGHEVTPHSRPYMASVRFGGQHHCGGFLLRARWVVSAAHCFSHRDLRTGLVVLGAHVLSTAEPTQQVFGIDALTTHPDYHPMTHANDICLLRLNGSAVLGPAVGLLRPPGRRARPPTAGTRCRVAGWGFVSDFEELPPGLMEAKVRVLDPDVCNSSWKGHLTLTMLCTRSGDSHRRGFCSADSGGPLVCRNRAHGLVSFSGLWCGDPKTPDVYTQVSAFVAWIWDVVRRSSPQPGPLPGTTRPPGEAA
recordedMetric: IC50
Please state the value followed by its unit.

Data request: Looking for the measured IC50 of anti-NSP4 antibody 2-5 (antibody, human IgG1, V domains shown, also called clone 2-5) VH: EVQLVESGGGLVQPGGSLRLSCAASGFTFTGYGISWVRQAPGKGLEWVGWIYPASGATYYADSVKGRFTISADTSKNTAYLQMNSLRAEDTAVYYCARHRAFDWYPYYIGSSVMDYWGQGTLVTVSS VL: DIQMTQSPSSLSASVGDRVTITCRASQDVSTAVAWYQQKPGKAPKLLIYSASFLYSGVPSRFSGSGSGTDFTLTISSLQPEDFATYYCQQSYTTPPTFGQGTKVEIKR , can you help?
Data returned: 22 nM
